From: patent US20230158102A1

# assay overview: in vitro
# experimental setup: African green monkey
endpoint: CC50

# molecular string, value
data = [
    ("CC[C@H](C)[C@H]1NC(=O)[C@@H](NC(=O)[C@@H](CC(C)C)N(C)C(=O)[C@@H]2CCCN2C(=O)C(C)=O)[C@@H](C)OC(=O)[C@H](Cc2ccc(OC)cc2)N(C)C(=O)[C@@H]2CCCN2C(=O)[C@H](CC(C)C)NC(=O)[C@@H](C)C(=O)[C@H](C(C)C)OC(=O)C[C@@H]1O", "178 to 431 nM"),
]

---

# assay overview: in vitro
# experimental setup: human
Numbered stars: 1 amine (or outer) side, 2 acyl side, 3 side chain; on linkers, the order of the positions; unused ones are H or OH. Bridge positions count the residues as written; N and C are the ends. Square brackets hold non-standard residues; d marks the D form. Peptide text beside a SMILES is read from it. X2 = CC[C@H](C)[C@@H](N[*:1])[C@@H](O)CC(=O)[*:2]; NMeY = CN[C@@H](Cc1ccc(O)cc1)C(=O)O; dNMeL = CN[C@H](CC(C)C)C(=O)O; Aib = CC(C)(N)C(=O)O

# compound, CC50
measured = [
    ("CC[C@H](C)[C@H]1NC(=O)[C@@H](NC(=O)[C@@H](CC(C)C)NC)[C@@H](C)OC(=O)[C@H](Cc2ccc(OC)cc2)N(C)C(=O)[C@@H]2CCCN2C(=O)[C@H](CC(C)C)NC(=O)C(C)(C)NC(=O)C[C@@H]1O [Compound 3] (H-[dNMeL]T[X2][Aib]LP[NMeY](Me); ester 2-C)", "~27 µM"),
]
